This collection of values is drawn from the supplement of paper PMC8617591.

test system: Mycobacterium tuberculosis Erdman (autoluminescent); assay: Einf, fitted maximum growth inhibition of three-drug combination (fraction); higher = stronger maximal inhibition; conditions: in vitro model: valerate; time point: terminal (~4-5 doublings, model-specific)
measuredMetric: Einf
Output: the number by itself.

The measured Einf associated with COc1nc2ccc(Br)cc2cc1[C@@H](c1ccccc1)[C@@](O)(CCN(C)C)c1cccc2ccccc12 [bedaquiline] + CC[C@@H](CO)NCCN[C@@H](CC)CO [ethambutol] + NNC(=O)c1ccncc1 [isoniazid] reads 0.954

The molecule identified as COc1nc2ccc(Br)cc2cc1[C@@H](c1ccccc1)[C@@](O)(CCN(C)C)c1cccc2ccccc12 [bedaquiline] + CC(C)/N=c1\cc2n(-c3ccc(Cl)cc3)c3ccccc3nc-2cc1Nc1ccc(Cl)cc1 [clofazimine] + O=[N+]([O-])c1cn2c(n1)OC[C@@H](OCc1ccc(OC(F)(F)F)cc1)C2 [pretomanid] registered its Einf at 0.954

// field: Einf; key: CC(C)/N=c1\cc2n(-c3ccc(Cl)cc3)c3ccccc3nc-2cc1Nc1ccc(Cl)cc1 [clofazimine] + CC(=O)NC[C@H]1CN(c2ccc(N3CCOCC3)c(F)c2)C(=O)O1 [linezolid] + CO[C@H]1/C=C/O[C@@]2(C)Oc3c(C)c(O)c4c(O)c(c(/C=N/N5CCN(C)CC5)c(O)c4c3C2=O)NC(=O)/C(C)=C\C=C\[C@H](C)[C@H](O)[C@@H](C)[C@@H](O)[C@@H](C)[C@H](OC(C)=O)[C@@H]1C [rifampicin] ; value = 0.942

---

tested on: Mycobacterium tuberculosis Erdman (autoluminescent); assay: AUC25, normalised area under dose response up to IC25 (three-drug combination) (fraction (0-1)); higher = more potent at low dose; details: in vitro model: cholesterol 0.05 mM; time point: constant (~7 days, model-specific)
measuredMetric: AUC25

Notebook: NNC(=O)c1ccncc1 [isoniazid] + CC(=O)NC[C@H]1CN(c2ccc(N3CCOCC3)c(F)c2)C(=O)O1 [linezolid] + CO[C@H]1/C=C/O[C@@]2(C)Oc3c(C)c(O)c4c(O)c(c(/C=N/N5CCN(C)CC5)c(O)c4c3C2=O)NC(=O)/C(C)=C\C=C\[C@H](C)[C@H](O)[C@@H](C)[C@@H](O)[C@@H](C)[C@H](OC(C)=O)[C@@H]1C [rifampicin] , AUC25 read as 0.139

AUC25 measured on COc1nc2ccc(Br)cc2cc1[C@@H](c1ccccc1)[C@@](O)(CCN(C)C)c1cccc2ccccc12 [bedaquiline] + CC[C@@H](CO)NCCN[C@@H](CC)CO [ethambutol] + CC(=O)NC[C@H]1CN(c2ccc(N3CCOCC3)c(F)c2)C(=O)O1 [linezolid] = 0.151

COc1nc2ccc(Br)cc2cc1[C@@H](c1ccccc1)[C@@](O)(CCN(C)C)c1cccc2ccccc12 [bedaquiline] + COc1c(N2C[C@@H]3CCCN[C@@H]3C2)c(F)cc2c(=O)c(C(=O)O)cn(C3CC3)c12 [moxifloxacin] + CO[C@H]1/C=C/O[C@@]2(C)Oc3c(C)c(O)c4c(O)c(c(/C=N/N5CCN(C6CCCC6)CC5)c(O)c4c3C2=O)NC(=O)/C(C)=C\C=C\[C@H](C)[C@H](O)[C@@H](C)[C@@H](O)[C@@H](C)[C@H](OC(C)=O)[C@@H]1C [rifapentine] has a reported AUC25 of 0.0837
